Exercise: for every item that follows, state its recorded inhibition at 10 µM.
ASSAYED_TARGET: NDM-1 Enzyme (Klebsiella pneumoniae, UniProt C7C422)
Sequence (C7C422 29-270, looked up, species assumed): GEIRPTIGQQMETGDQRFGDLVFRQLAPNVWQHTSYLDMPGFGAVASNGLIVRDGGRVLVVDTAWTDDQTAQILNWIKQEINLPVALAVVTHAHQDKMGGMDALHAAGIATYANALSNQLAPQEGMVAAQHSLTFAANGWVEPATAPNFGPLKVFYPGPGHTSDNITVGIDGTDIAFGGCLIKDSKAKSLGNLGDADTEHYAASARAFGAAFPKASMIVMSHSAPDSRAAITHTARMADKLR
PROTOCOL_NOTES: Imipenem hydrolysis followed by UV absorbance slope, NDM-1 enzyme
Type: biochemical
EXPERIMENTAL_SETUP: C 10 μM

Exercise: Can you look up inhibition at 10 µM on NDM-1 Enzyme (Klebsiella pneumoniae, UniProt C7C422) for COc1ccc(N2/C(=N/c3ccccc3)CC2c2ccccc2)cc1 (single isomer, unassigned) [Enantiomer 2] ?
Key: 95%

Exercise: How about this molecule: COc1ccc(N2/C(=N/c3ccc(Cl)cc3)CC2c2ccccc2)cc1 (centres unmarked)
Key: 100%

Exercise: How about this molecule: COc1ccc(N2/C(=N/c3ccccc3)CC2c2ccc(Cl)cc2)cc1 (centres unmarked) [drawing 76]
Key: 96%

Exercise: How about this molecule: COc1ccc(N2/C(=N/c3ccc(C(F)(F)F)cc3)CC2c2ccc(Cl)cc2)cc1 (centres unmarked)
Key: 100%

Exercise: How about this molecule: COc1ccc(N2/C(=N/c3ccccc3)CC2c2ccc(F)cc2)cc1 (centres unmarked)
Key: 9%

Exercise: How about this molecule: COc1ccc(C2C/C(=N\c3ccccc3)N2c2ccc(OC)cc2)cc1 (centres unmarked)
Key: 67%

Exercise: How about this molecule: COc1ccc(N2/C(=N/c3ccccc3)CC2c2ccccc2)cc1 (centres unmarked) [drawing 74]
Key: 90%

Exercise: How about this molecule: [N-]=[N+]=NCc1ccc(C2C/C(=N\c3ccccc3)N2c2ccccc2)cc1 (centres unmarked)
Key: 100%
